Collected inhibition in vivo at 5 mg/kg values appear next to each entry.
system: blood glucose; test: hypoglycaemic activity: reduction in area under blood glucose curve after glucose load in fasted mice; format: in vivo, female CFLP mice; conditions: Mus musculus, po, 2 h, 5 mg/kg po, 30 min before glucose load 1 g/kg sc; 2 hour period; versus control mice

Compound: COC(=O)c1ccc(CC(C)NCC(O)c2ccccc2)cc1 (stereo not drawn)
inhibition in vivo at 5 mg/kg (%): 172
--
Compound: COC(=O)c1ccc(CC(C)NCC(O)c2cc(Cl)c(N)c(Cl)c2)cc1 (stereo not drawn)
inhibition in vivo at 5 mg/kg (%): 141
--
Compound: COC(=O)c1ccc(CCCC(C)NCC(O)c2ccc(O)c(CO)c2)cc1 (stereo not drawn)
inhibition in vivo at 5 mg/kg (%): 84
--
Compound: COC(=O)c1ccc(C[C@H](C)NCC(O)c2ccc(O)c(CO)c2)cc1 (stereo partly drawn)
inhibition in vivo at 5 mg/kg (%): 79
--
Compound: COC(=O)c1ccc(CC(C)(C)NCC(O)c2ccc(O)c(CO)c2)cc1 (stereo not drawn)
inhibition in vivo at 5 mg/kg (%): 139
--
Compound: COC(=O)c1ccc(CC(C)NCC(O)c2ccc(O)c(CO)c2)c(F)c1 (stereo not drawn)
inhibition in vivo at 5 mg/kg (%): 47
--
Compound: COC(=O)c1ccc(CC(C)NCC(O)c2ccc(O)cc2Cl)cc1 (stereo not drawn)
inhibition in vivo at 5 mg/kg (%): 88
--
Compound: COC(=O)c1ccc(CC(C)NCC(O)c2ccccc2Cl)cc1 (stereo not drawn)
inhibition in vivo at 5 mg/kg (%): 37
--
Compound: COC(=O)c1ccc(CCNCC(O)c2ccccc2Cl)cc1 (stereo not drawn)
inhibition in vivo at 5 mg/kg (%): 38
--
Compound: COC(=O)c1ccc(CCC(C)NCC(O)c2ccc(O)c(CO)c2)cc1 (stereo not drawn)
inhibition in vivo at 5 mg/kg (%): 110
--
Compound: COC(=O)c1ccc(CC(C)NCC(O)c2ccc(O)c(NC(C)=O)c2)cc1 (stereo not drawn)
inhibition in vivo at 5 mg/kg (%): 59
--
Compound: COC(=O)c1ccc(CC(C)NCC(O)c2ccc(O)c(CO)c2)cc1 (stereo not drawn)
inhibition in vivo at 5 mg/kg (%): 157
--
Compound: COC(=O)c1ccc(CC(C)NCC(O)c2ccc(O)c(CO)c2)c(OC)c1 (stereo not drawn)
inhibition in vivo at 5 mg/kg (%): 168
--
Compound: COC(=O)c1ccc(CCNCC(O)c2ccccc2)cc1 (stereo not drawn)
inhibition in vivo at 5 mg/kg (%): 179
--
Compound: COC(=O)c1ccc(CC(C)NCC(O)c2ccc(O)c(CS(C)(=O)=O)c2)cc1 (stereo not drawn)
inhibition in vivo at 5 mg/kg (%): 83
